Reported herbicidal effect rating, ORYSAT (rice tolerance) is given for each of the following molecules.
# Tested on: Oryza sativa, (L.) Tebonnet
# experiment notes: Rice tolerance to post-transplant applications under flooded paddy conditions (Example 187), ORYSAT (Rice, Tebonnet)
# experimental conditions: 0.2500 kg/ha, rated three to four weeks after treatment
measurement type: herbicidal effect rating, ORYSAT (rice tolerance)

- Cc1ccc(S(=O)(=O)NC(=O)COc2ccc(C)cc2-c2nsc3ccc(-n4c(=O)cc(C(F)(F)F)n(C)c4=O)cc23)cc1 [Example 122]: 4.0
- COC(=O)C(C)Oc1c(C)cc(C)cc1-c1nsc2ccc(-n3c(=O)cc(C(F)(F)F)n(C)c3=O)cc12 (centres unmarked) [Example 27]: 6.0
- CSCc1nsc2ccc(-n3c(=O)cc(C(F)(F)F)n(C)c3=O)cc12 [Example 21]: 4.3
- COC(=O)C(C)Oc1cc(C)c(C)cc1-c1nsc2ccc(-n3c(=O)cc(C(F)(F)F)n(C)c3=O)cc12 (centres unmarked) [Example 13]: 7.0
- COC(=O)COc1noc2ccc(-n3c(=O)cc(C(F)(F)F)n(C)c3=O)cc12 [Example 22]: 2.5
- CCOCc1nsc2ccc(-n3c(=O)cc(C(F)(F)F)n(C)c3=O)cc12 [Example 195]: 9.0
- Cc1ccc(OCC(=O)OCC#Cc2ccccc2)c(-c2nsc3ccc(-n4c(=O)cc(C(F)(F)F)n(C)c4=O)cc23)c1 [Example 73]: 6.0
- Cc1nsc2ccc(-n3c(=O)cc(C(F)(F)F)n(C)c3=O)cc12 [Example 6]: 8.0
- COCC(C)OC(=O)COc1ccc(C)cc1-c1nsc2ccc(-n3c(=O)cc(C(F)(F)F)n(C)c3=O)cc12 (racemic) [Example 192]: 4.0
- COc1noc2ccc(-n3c(=O)cc(C(F)(F)F)n(C)c3=O)cc12 [Example 42]: 0.0
- CCN(CC)c1nsc2ccc(-n3c(=O)cc(C(F)(F)F)n(C)c3=O)cc12 [Example 118]: 0.0
- COc1cc(C)ccc1-c1nsc2ccc(-n3c(=O)cc(C(F)(F)F)n(C)c3=O)cc12 [Example 7]: 7.0
- C=CCOCc1nsc2ccc(-n3c(=O)cc(C(F)(F)F)n(C)c3=O)cc12 [Example 196]: 8.0
- Cc1ccc(OC2CC(C)OC2=O)c(-c2nsc3ccc(-n4c(=O)cc(C(F)(F)F)n(C)c4=O)cc23)c1 (racemic) [Example 189]: 0.0
- CCc1ccc(OC)c(-c2nsc3ccc(-n4c(=O)cc(C(F)(F)F)n(C)c4=O)cc23)c1 [Example 45]: 3.0
- COC(=O)C(C)Oc1ccc(C(C)C)cc1-c1nsc2ccc(-n3c(=O)cc(C(F)(F)F)n(C)c3=O)cc12 (centres unmarked) [Example 30]: 3.5
- Cn1c(C(F)(F)F)cc(=O)n(-c2ccc3snc(COC(CF)CF)c3c2)c1=O [Example 207]: 7.5
- Cn1c(C(F)(F)F)cc(=O)n(-c2ccc3snc(Br)c3c2)c1=O [Example 36]: 1.0
- CCN(CC)C(=O)COc1ccc(C)cc1-c1nsc2ccc(-n3c(=O)cc(C(F)(F)F)n(C)c3=O)cc12 [Example 60]: 0.0
- Cn1c(C(F)(F)F)cc(=O)n(-c2ccc3snc(N4CCOCC4)c3c2)c1=O [Example 116]: 0.0
- Cc1ccc(O)c(-c2noc3ccc(-n4c(=O)cc(C(F)(F)F)n(C)c4=O)c(Cl)c23)c1 [Example 41]: 0.0
- Cc1ccc(OCC#N)c(-c2nsc3ccc(-n4c(=O)cc(C(F)(F)F)n(C)c4=O)cc23)c1 [Example 57]: 6.0
- Cc1ccc(OC(C)C)c(-c2nsc3ccc(-n4c(=O)cc(C(F)(F)F)n(C)c4=O)cc23)c1 [Example 59]: 4.0
